Assay: APR_HepG2_p53Act_72hr: Apredica 72-hour HepG2 Assay for p53 Activation (AID 2282923);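 note: average cellular p53 protein immunofluorescence intensity in HepG2 cells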
Details: high-content imaging, actives raise or lower the signal
Active and inactive are the calls of the source. Rule for the calls: active = hit-call score of the fitted dose curve at least 0.9, where 1 is the maximum; inactive = score below 0.9.
Write down the outcome that applies. Available outcomes: Yes for active, No for inactive

Given `Cc1cc2c(cc1C(F)(F)F)N(C(=O)Nc1ccc(Oc3cccnc3C)nc1)CC2` , state the outcome it received in this test.
Yes

Given `CCCCCCCC[Si](OCC)(OCC)OCC` , state the outcome it received in this test.
Yes

Given COCC(C)OCC(C)OCC(C)O (stereo unspecified) , state the outcome it received in this test.
No

Given CC(O)CC(C)(C)O (stereo unspecified) , state the outcome it received in this test.
No

Given OC12N=C(c3ccccc3)SC1Cc1cc(Cl)ccc12 (stereo unspecified) , state the outcome it received in this test.
No

Given `CC(C)(C)c1cc(/C=C2\SC(N)=NC2=O)cc(C(C)(C)C)c1O` , state the outcome it received in this test.
Yes

###

Assay: CCTE_Simmons_MITO_viability: CellTiter-Glo Viability Assessment for CCTE's HepG2 Seahorse XF Respirometric Screening Assay [post-hoc], Simmons Lab (AID 2284007);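 for AC50: cells exposed to chemical for 90 min before the ATP read; actives lower ATP signal relative to DMSO baseline meaning reduced viability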
Method: CCTE_Simmons_MITO is cell-based, respirometric assay using HepG2 cells and a Seahorse XF Analyzer to measure oxygen consumption rates over four temporal phases spanning a total of 72 minutes: pre-injection (pre-treatment), basal (following test compound injection), maximal (following FCCP uncoupler injection), and inhibited (following rotenone/antimycin A injection)CCTE_Simmons_MITO_viability is one of 4 assay components measured from the CCTE_Simmons_MITO assay. […]
Records with an inconclusive call do not appear. The source made the active and inactive calls. Rule for the calls: active = hit-call score of the fitted dose curve at least 0.9, where 1 is the maximum; inconclusive = response in the unintended direction; inactive = score below 0.9.
READOUT LABEL: AC50

See these solved cases before continuing.
[
  {
    "COMPOUND": "CC(=O)N1CCN(c2ccc(OC[C@H]3CO[C@](Cn4ccnc4)(c4ccc(Cl)cc4Cl)O3)cc2)CC1",
    "REPORTED RESULT": "inactive"
  },
  {
    "COMPOUND": "CC(C)(c1cc(Br)c(O)c(Br)c1)c1cc(Br)c(O)c(Br)c1",
    "REPORTED RESULT": "inactive"
  },
  {
    "COMPOUND": "CCN(Cc1cccnc1)C(=O)c1cccc(Cl)c1[C@]1(C)C(=O)N(Cc2ccc(OC)cc2OC)c2ccc(Cl)cc21",
    "REPORTED RESULT": "inactive"
  },
  {
    "COMPOUND": "OC12N=C(c3ccccc3)SC1Cc1cc(Cl)ccc12 (stereo not given)",
    "REPORTED RESULT": "inactive"
  },
  {
    "COMPOUND": "CC(C)(O)c1ccc(CNC(=O)c2cccnc2Oc2ccc3nonc3c2)cc1",
    "REPORTED RESULT": "inactive"
  }
]

Entry under test: `CCCCOC(=O)c1ccc(O)cc1` . Its AC50 was inactive

Entry under test: `Cc1c2ccccc2c(C)c2c1ccc1ccccc12` . Its AC50 was 19.4 µM (active)

Entry under test: `O=C1CCC(C2CCCCC2)CC1` . Its AC50 was inactive

Entry under test: `C[C@]12CC[C@@H]3c4ccc(O)cc4CC[C@H]3[C@@H]1CC[C@H]2O` . Its AC50 was inactive

Entry under test: `CC(C)(C)c1csc(-c2cc3cc(OCc4ccccc4CC(=O)O)ccc3o2)n1` . Its AC50 was 50 µM (active)

###

Read-out: CD40, CD40 (gene 958)
Experiment: BSK_LPS_CD40: BioMAP Diversity Plus: LPS Assay for CD40 Biomarker Activity (AID 2283076)
Details: primary human HUVEC with PBMC; actives raise or lower the signal
Activity calls are given as the source filed them. How the source made its calls: active means hit-call score of the fitted dose curve at least 0.9, where 1 is the maximum; inactive means score below 0.9.
Write down the outcome that applies. Available outcomes: 1 (active), 0 (inactive)

Given `Cc1ccc(C(C)C)cc1` , state the outcome it received in this test.
0

Given `CCCCCCCCOc1ccc(C(=O)c2ccccc2)c(O)c1` , state the outcome it received in this test.
1

Given COCC(C)OCC(C)OCC(C)O (stereo not given) , state the outcome it received in this test.
0

Given `Oc1ccc2ccccc2c1` , state the outcome it received in this test.
1

Given `O=C1CCC(C2CCCCC2)CC1` , state the outcome it received in this test.
0

Given `O=C(O)Cc1cc(I)c(Oc2ccc(O)c(I)c2)c(I)c1` , state the outcome it received in this test.
0

Given `CCCOC(=O)c1cc(O)c(O)c(O)c1` , state the outcome it received in this test.
0

Given `Oc1ccccc1` , state the outcome it received in this test.
0

Given `CC(C)(C)c1cc(/C=C2\SC(N)=NC2=O)cc(C(C)(C)C)c1O` , state the outcome it received in this test.
1

Given `CCOC(=O)O[C@H](C)OC(=O)c1ccc2c(c1)cc(C(=O)NC1CCN(C(C)C)CC1)n2Cc1cc(-c2ccc(Cl)s2)on1` , state the outcome it received in this test.
1

Given `CC1=CC(=O)/C(=C(/C)O)C(=O)O1` , state the outcome it received in this test.
0

Given `C[C@]12CC[C@@H]3c4ccc(O)cc4CC[C@H]3[C@@H]1CCC2=O` , state the outcome it received in this test.
0

Given `CCCCOC(=O)CC(CC(=O)OCCCC)(OC(C)=O)C(=O)OCCCC` , state the outcome it received in this test.
0

Given `O=C1c2ccccc2C(=O)N1CCc1noc(-c2ccc(CN3CCCCCC3)s2)n1` , state the outcome it received in this test.
0

Given `CCCCCCCC[Si](OCC)(OCC)OCC` , state the outcome it received in this test.
0

Given `CN(C)C(=O)C1(N2CCCCC2)CCN(CC[C@@]2(c3ccc(Cl)c(Cl)c3)CN(C(=O)c3ccccc3)CCO2)CC1` , state the outcome it received in this test.
1

Given `Cc1cc(F)ccc1-c1cc(N2CC[C@@H](O)[C@H]2CO)ncc1N(C)C(=O)C(C)(C)c1cc(C(F)(F)F)cc(C(F)(F)F)c1` , state the outcome it received in this test.
1

Given `O=CCCCC=O` , state the outcome it received in this test.
0

Given `OCCO` , state the outcome it received in this test.
0

Given `CC(C)(c1cc(Br)c(O)c(Br)c1)c1cc(Br)c(O)c(Br)c1` , state the outcome it received in this test.
1

Given `CCCCCCCCCC(=O)O` , state the outcome it received in this test.
0

Given `c1ccc2ccccc2c1` , state the outcome it received in this test.
0

Given `CC(=O)N1CCN(c2ccc(OC[C@H]3CO[C@](Cn4ccnc4)(c4ccc(Cl)cc4Cl)O3)cc2)CC1` , state the outcome it received in this test.
1

Given `O=C(OCCCCCCOC(=O)c1ccccc1)c1ccccc1` , state the outcome it received in this test.
0

Given `O=C1O[C@H]([C@@H](O)CO)C(O)=C1O` , state the outcome it received in this test.
0

###

Biological target: Ratio of Nucleoli Translocation and Cytoplasm, AR (gene 367) (UniProt P10275)
Sequence (P10275 whole entry, looked up): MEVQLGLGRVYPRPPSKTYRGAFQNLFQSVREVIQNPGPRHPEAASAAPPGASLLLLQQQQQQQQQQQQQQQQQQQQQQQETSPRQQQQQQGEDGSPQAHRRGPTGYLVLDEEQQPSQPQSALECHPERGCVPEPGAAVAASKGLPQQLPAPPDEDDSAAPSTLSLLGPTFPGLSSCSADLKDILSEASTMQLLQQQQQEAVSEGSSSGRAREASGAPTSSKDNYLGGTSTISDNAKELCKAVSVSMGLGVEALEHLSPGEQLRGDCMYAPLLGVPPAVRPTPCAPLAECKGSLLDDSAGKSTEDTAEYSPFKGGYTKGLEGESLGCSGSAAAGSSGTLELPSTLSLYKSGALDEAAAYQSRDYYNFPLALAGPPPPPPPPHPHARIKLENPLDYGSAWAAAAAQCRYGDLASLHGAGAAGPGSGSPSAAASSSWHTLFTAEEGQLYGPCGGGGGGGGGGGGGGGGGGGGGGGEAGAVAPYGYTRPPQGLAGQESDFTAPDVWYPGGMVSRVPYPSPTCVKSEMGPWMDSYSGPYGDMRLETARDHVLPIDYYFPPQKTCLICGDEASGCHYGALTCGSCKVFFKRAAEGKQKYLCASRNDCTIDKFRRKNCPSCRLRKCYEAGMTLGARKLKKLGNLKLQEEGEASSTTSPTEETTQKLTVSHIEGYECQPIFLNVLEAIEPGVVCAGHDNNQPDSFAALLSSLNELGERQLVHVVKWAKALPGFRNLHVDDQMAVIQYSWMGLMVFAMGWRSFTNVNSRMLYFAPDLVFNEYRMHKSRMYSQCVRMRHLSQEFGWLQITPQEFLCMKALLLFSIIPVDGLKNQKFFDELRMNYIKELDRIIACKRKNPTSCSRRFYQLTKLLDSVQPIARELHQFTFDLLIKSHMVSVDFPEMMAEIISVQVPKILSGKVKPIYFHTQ
Test: UPITT_HCI_U2OS_AR_TIF2_Nucleoli_Cytoplasm_Ratio_Antagonist: University of Pittsburgh U2OS Androgen Receptor-Transcriptional Intermediary Factor 2 (AR-TIF2) Antagonism High Content Imaging Assay for Ratio of Nucleoli Translocation and Cytoplasm (AID 2283999);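 note: antagonists lower the DHT-driven ratio of nucleolar to cytoplasmic red signal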
Inconclusive results are not listed. The source made the active and inactive calls. The calls were made as follows: active = hit-call score of the fitted dose curve at least 0.9, where 1 is the maximum; inconclusive = response in the unintended direction; inactive = score below 0.9.
Write down the outcome that applies. Available outcomes: true (active), false (inactive)

Given COCC(C)OCC(C)OCC(C)O (configuration not stated) , state the outcome it received in this test.
false

Given `CCN(Cc1cccnc1)C(=O)c1cccc(Cl)c1[C@]1(C)C(=O)N(Cc2ccc(OC)cc2OC)c2ccc(Cl)cc21` , state the outcome it received in this test.
false

Given `O=c1c(-c2ccc(O)cc2)coc2cc(O)cc(O)c12` , state the outcome it received in this test.
false

Given `NC(=O)c1nc(-c2cccc(-c3cc(F)ccc3OCC(F)(F)C(F)(F)F)c2)n[nH]1` , state the outcome it received in this test.
false

Given `O=C(Nc1ccc(Cl)cc1)Nc1ccc(Cl)c(Cl)c1` , state the outcome it received in this test.
false

Given `Cc1c2ccccc2c(C)c2c1ccc1ccccc12` , state the outcome it received in this test.
false

Given `Oc1ccc2ccccc2c1` , state the outcome it received in this test.
false

Given `NCc1cccc(C2CCN(C(=O)c3ccc(C#Cc4ccccc4F)o3)CC2)c1` , state the outcome it received in this test.
true

Given `CCCCCCCCCC(=O)O` , state the outcome it received in this test.
false

Given `COc1cc(C(=O)NC2CCN(C)CC2)ccc1Nc1ncc2c(n1)N(C1CCCC1)CC(F)(F)C(=O)N2C` , state the outcome it received in this test.
false

Given `CN(C)c1ccc(C(=C2C=CC(=[N+](C)C)C=C2)c2ccc(N(C)C)cc2)cc1` , state the outcome it received in this test.
true

Given `CCCC(=O)OCCC(C)C` , state the outcome it received in this test.
false
